Please provide measured koff for the entries that follow.
- TARGET OR TEST SYSTEM: T1, human soluble urokinase plasminogen activator receptor (suPAR) (human, UniProt Q03405 23-303, limits assumed)
- T1 construct: Target antigen of the scFv off-rate screen; also called hsuPAR; human suPAR
- T1 sequence (Q03405 23-303 limits assumed): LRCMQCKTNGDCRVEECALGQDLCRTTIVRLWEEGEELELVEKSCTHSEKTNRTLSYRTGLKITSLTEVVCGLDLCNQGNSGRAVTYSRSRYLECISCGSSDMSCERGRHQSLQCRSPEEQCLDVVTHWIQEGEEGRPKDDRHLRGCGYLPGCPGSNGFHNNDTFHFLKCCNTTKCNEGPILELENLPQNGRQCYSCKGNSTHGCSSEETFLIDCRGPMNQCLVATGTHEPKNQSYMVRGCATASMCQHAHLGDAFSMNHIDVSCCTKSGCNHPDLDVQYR
- METHOD DESCRIPTION: BLI (Octet) off-rate screen of scFv clones
The figure you give is taken to be in s⁻¹; do not add the unit.

// suPAR_DB06_C09 (scFv, V domains shown) VH: QVQLVQSGAEVKKPGASVKVSCKASGYTFTSYYMHWVRQAPGQGLEWMGWIDPENGNTIYDQKFQGRVTMTRDTSTSTVYMELSSLRSEDTAVYYCARGYDVDWFVYWGQGTLVTVSS VL: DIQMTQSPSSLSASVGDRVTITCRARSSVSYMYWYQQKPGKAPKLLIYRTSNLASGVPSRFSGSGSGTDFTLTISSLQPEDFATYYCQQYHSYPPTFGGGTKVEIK : koff value = 0.00382

// suPAR_DB06_E02 (scFv, V domains shown) VH: QVQLVQSGAEVKKPGASVKVSCKASGYSFTNYYMHWVRQAPGQGLEWMGWIDHENGNTIYDQKFQGRVTMTRDTSTSTVYMELSSLRSEDTAVYYCARGYDVDWFVYWGQGTLVTVSS VL: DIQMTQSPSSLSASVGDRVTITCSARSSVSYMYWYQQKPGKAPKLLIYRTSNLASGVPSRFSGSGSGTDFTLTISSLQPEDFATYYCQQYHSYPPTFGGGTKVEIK : koff value = 0.00189

// suPAR_DB06_C03 (scFv, V domains shown) VH: QVQLVQSGAEVKKPGASVKVSCKASGYTFTSYYMHWVRQAPGQGLEWMGWIDPNSGGTNYAQKFQGRVTMTRDTSTSTVYMELSSLRSEDTAVYYCARGYDVDWFVYWGQGTLVTVSS VL: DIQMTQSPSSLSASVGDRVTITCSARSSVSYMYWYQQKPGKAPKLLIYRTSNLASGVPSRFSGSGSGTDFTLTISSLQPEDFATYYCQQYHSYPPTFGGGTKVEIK : koff value = 0.00347
